Known apparent Kd (screen) of a selection of binders
- study-system: T1, TNFR1 (Homo sapiens, UniProt P19438)
- T1 chain: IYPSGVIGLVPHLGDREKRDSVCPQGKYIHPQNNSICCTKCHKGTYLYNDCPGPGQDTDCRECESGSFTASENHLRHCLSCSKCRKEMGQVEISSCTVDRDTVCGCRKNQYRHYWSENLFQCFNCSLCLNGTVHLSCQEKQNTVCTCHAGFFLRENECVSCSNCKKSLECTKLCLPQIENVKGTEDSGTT
- protocol-notes: yeast display SC50

[
  {
    "binder": "K11N (designed binder) SMEEEVEKAANEYEKKKKEAIEKHLEKLKAKDKEAAERFLKELEEAAKEYAKDEAKTMSEEEAKRRAKKYKEKVLLSELSEEEQKEIKEAEEKLVRTILKYVEEAAK",
    "unit": "nM",
    "apparent Kd (screen)": 0.446
  },
  {
    "binder": "D53H (designed binder) SMEEEVEKAAKEYEKKKKEAIEKHLEKLKAKDKEAAERFLKELEEAAKEYAKHEAKTMSEEEAKRRAKKYKEKVLLSELSEEEQKEIKEAEEKLVRTILKYVEEAAK",
    "unit": "nM",
    "apparent Kd (screen)": 1.69
  }
]
